Biological target: T1, Clostridium difficile toxin A (TcdA) (Clostridium difficile, UniProt P16154 1-2710)
T1 construct: mature; also called full-length TcdA
T1 sequence (P16154 whole entry): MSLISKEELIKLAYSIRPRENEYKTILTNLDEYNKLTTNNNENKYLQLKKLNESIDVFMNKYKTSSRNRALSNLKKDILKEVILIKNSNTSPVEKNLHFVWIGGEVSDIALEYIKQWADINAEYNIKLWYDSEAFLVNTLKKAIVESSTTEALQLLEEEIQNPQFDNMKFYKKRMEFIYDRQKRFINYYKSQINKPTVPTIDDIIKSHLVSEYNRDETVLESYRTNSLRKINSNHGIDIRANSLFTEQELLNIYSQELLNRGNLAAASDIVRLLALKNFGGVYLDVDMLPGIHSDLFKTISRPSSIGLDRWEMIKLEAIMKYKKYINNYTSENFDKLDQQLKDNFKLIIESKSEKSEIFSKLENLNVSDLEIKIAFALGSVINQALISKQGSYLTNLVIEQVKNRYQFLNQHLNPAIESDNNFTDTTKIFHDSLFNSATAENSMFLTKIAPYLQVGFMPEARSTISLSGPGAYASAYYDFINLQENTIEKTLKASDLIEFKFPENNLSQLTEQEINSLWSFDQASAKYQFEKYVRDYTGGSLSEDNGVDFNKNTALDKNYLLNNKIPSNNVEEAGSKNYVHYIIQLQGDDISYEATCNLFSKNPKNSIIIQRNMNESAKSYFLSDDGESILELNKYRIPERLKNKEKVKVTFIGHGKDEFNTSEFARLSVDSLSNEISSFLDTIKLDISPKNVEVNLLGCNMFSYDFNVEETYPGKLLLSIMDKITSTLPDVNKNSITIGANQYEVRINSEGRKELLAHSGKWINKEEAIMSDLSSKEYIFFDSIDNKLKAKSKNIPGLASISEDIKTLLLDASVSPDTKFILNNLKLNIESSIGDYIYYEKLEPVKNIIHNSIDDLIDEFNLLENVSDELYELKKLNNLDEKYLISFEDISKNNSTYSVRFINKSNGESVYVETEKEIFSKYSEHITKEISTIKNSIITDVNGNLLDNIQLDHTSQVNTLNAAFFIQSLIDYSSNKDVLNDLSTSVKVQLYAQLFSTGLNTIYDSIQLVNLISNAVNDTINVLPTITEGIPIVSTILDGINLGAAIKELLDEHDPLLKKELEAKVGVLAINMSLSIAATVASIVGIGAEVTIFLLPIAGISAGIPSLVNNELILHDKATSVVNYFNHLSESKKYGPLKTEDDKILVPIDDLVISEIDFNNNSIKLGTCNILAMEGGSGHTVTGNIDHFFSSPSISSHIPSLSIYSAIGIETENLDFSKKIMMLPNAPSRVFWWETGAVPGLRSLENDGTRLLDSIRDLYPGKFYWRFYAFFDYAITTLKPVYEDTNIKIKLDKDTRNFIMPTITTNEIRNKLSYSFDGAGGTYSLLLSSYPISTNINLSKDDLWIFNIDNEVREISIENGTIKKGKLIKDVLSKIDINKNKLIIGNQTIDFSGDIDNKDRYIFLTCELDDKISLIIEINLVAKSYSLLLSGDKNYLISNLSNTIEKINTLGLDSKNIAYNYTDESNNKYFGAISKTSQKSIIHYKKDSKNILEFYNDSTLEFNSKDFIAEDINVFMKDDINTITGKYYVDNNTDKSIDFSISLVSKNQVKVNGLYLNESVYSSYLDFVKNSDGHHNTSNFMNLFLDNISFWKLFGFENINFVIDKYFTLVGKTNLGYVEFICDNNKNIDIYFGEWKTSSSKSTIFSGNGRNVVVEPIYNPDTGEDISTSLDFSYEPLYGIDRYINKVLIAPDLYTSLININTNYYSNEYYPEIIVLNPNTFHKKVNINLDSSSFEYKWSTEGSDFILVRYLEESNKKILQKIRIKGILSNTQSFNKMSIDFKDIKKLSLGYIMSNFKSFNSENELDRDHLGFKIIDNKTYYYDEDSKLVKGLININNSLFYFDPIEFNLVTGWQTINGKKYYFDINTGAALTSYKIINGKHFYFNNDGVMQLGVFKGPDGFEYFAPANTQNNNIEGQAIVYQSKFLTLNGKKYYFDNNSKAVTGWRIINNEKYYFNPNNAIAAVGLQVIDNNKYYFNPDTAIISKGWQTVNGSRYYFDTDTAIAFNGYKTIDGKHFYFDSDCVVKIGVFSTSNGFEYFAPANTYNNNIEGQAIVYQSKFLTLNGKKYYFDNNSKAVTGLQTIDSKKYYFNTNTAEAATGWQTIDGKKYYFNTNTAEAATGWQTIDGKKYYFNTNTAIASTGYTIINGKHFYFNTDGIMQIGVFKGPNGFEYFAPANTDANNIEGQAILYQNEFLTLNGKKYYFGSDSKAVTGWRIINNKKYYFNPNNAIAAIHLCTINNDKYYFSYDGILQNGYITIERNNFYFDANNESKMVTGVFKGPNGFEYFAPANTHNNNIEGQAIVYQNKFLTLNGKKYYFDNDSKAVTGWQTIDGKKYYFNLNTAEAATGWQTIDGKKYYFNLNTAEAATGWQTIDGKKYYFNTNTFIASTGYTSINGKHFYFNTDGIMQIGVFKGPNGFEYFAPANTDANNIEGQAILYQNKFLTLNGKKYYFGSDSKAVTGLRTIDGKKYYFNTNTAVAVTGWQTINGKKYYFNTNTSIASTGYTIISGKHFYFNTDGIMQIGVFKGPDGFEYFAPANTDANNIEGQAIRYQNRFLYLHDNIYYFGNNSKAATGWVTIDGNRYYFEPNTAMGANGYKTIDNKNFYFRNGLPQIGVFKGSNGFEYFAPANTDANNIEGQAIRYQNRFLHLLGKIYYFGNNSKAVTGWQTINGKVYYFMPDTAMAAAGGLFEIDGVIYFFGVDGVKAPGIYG
Test: SPR (Biacore 3000), VHH over immobilized TcdA; binding free energy difference relative to parent VHH
Values of ΔΔG strictly less than -0.5 kcal/mol map to yes, and values of at least -0.5 kcal/mol map to no.

Some entries whose results are on file:
binder: A26.8-T56R, T103R (VHH, not shown: small tags and cut ends, also called lead double mutant; best double mutant) VHH: QVKLEESGGGLVQAGGSLRLSCAASERTFSRYPVAWFRQAPGAEREFVAVISSTGRSTYYADSVKGRFTISRDNAKVTVYLQMNNLKREDTAVYFCAVNSQRRRLQDPNEYDYWGQGTQVTVSS
group: yes

binder: A26.8-T56R (VHH, not shown: small tags and cut ends) VHH: QVKLEESGGGLVQAGGSLRLSCAASERTFSRYPVAWFRQAPGAEREFVAVISSTGRSTYYADSVKGRFTISRDNAKVTVYLQMNNLKREDTAVYFCAVNSQRTRLQDPNEYDYWGQGTQVTVSS
group: yes

binder: A26.8 VHH mutant Q106W (VHH, not shown: small tags and cut ends) VHH: QVKLEESGGGLVQAGGSLRLSCAASERTFSRYPVAWFRQAPGAEREFVAVISSTGTSTYYADSVKGRFTISRDNAKVTVYLQMNNLKREDTAVYFCAVNSQRTRLWDPNEYDYWGQGTQVTVSS
group: no

Please determine if A26.8-T56R, T103K (VHH, not shown: small tags and cut ends) VHH: QVKLEESGGGLVQAGGSLRLSCAASERTFSRYPVAWFRQAPGAEREFVAVISSTGRSTYYADSVKGRFTISRDNAKVTVYLQMNNLKREDTAVYFCAVNSQRKRLQDPNEYDYWGQGTQVTVSS is below -0.5 kcal/mol in terms of ΔΔG. yes

Values from patent US20210171613A1
